Data provenance: patent US20250154144A1

Molecular target: FLT3 D835Y (Homo sapiens, UniProt P36888, D835Y)
Sequence (P36888 27-993 D835Y): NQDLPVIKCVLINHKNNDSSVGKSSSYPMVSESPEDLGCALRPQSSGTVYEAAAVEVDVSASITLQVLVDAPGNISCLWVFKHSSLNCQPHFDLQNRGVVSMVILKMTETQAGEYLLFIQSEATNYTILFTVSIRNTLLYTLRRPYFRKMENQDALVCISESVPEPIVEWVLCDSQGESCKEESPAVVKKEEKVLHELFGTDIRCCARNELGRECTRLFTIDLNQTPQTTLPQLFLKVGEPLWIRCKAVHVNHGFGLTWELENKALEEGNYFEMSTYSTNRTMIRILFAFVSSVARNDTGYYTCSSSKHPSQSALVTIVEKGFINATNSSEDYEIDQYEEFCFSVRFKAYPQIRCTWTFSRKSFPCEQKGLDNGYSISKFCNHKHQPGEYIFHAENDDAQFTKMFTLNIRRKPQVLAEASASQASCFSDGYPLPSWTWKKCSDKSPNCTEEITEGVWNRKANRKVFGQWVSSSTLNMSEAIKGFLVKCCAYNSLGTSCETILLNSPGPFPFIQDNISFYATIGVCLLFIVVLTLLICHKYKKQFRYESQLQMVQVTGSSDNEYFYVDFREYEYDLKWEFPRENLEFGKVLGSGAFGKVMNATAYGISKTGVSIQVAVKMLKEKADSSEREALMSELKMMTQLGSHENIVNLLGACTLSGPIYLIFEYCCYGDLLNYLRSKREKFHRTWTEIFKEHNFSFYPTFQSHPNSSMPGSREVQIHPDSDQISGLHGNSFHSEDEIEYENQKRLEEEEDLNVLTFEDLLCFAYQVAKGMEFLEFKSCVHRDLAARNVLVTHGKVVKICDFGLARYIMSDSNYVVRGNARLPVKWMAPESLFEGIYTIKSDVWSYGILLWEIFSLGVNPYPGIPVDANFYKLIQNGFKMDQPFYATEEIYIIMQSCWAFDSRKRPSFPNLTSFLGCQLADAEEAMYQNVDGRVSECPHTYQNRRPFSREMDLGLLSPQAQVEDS
Experiment: DiscoverX KINOMEscan competition binding, FLT3 D835Y
Recorded pKd for the following compounds
Just so you know, pKd here is -log10 of the concentration in molar units; reply with that number alone.

>  <compound>
COc1cc2ncc(-c3cncc(N[C@H]4CNCC[C@@H]4F)n3)n2nc1C1CC1 [Compound 24]

>  <quantitative result>
9.13

$$$$
>  <compound>
COc1cc2ncc(-c3ccnc(N[C@H]4CNCC[C@@H]4F)n3)n2nc1C1CC1 [Compound 51]

>  <quantitative result>
9.46

$$$$
>  <compound>
F[C@H]1CCNC[C@@H]1Nc1cncc(-c2cnc3cc(OC4CC4)ccn23)n1 [Compound 12]

>  <quantitative result>
8.96

$$$$
>  <compound>
CC(O)(c1cn2c(-c3ccnc(N[C@H]4CNCC[C@@H]4F)n3)cnc2cn1)C(F)(F)F (single isomer, unassigned) [Compound 72]

>  <quantitative result>
9.16

$$$$
>  <compound>
COc1cc2ncc(-c3ccnc(N[C@@H]4CCCNC4)n3)n2cc1C(C)(C)O [Compound 44]

>  <quantitative result>
9.82

$$$$
>  <compound>
COc1cc2ncc(-c3ccnc(N[C@H]4CNC[C@@H]4F)n3)n2nc1C1CC1 [Compound 49]

>  <quantitative result>
9.39

$$$$

Notebook: COc1cc2ncc(-c3cncc(N[C@H]4CNC[C@@H]4F)n3)n2nc1C1CC1 [Compound 22] , pKd read as 9.22
